Origin of values: patent US11161849B2

Overview of recorded pIC50 for various molecules
Target or system: human TRPA1 (Homo sapiens (Human))
Sequence (O75762 whole entry): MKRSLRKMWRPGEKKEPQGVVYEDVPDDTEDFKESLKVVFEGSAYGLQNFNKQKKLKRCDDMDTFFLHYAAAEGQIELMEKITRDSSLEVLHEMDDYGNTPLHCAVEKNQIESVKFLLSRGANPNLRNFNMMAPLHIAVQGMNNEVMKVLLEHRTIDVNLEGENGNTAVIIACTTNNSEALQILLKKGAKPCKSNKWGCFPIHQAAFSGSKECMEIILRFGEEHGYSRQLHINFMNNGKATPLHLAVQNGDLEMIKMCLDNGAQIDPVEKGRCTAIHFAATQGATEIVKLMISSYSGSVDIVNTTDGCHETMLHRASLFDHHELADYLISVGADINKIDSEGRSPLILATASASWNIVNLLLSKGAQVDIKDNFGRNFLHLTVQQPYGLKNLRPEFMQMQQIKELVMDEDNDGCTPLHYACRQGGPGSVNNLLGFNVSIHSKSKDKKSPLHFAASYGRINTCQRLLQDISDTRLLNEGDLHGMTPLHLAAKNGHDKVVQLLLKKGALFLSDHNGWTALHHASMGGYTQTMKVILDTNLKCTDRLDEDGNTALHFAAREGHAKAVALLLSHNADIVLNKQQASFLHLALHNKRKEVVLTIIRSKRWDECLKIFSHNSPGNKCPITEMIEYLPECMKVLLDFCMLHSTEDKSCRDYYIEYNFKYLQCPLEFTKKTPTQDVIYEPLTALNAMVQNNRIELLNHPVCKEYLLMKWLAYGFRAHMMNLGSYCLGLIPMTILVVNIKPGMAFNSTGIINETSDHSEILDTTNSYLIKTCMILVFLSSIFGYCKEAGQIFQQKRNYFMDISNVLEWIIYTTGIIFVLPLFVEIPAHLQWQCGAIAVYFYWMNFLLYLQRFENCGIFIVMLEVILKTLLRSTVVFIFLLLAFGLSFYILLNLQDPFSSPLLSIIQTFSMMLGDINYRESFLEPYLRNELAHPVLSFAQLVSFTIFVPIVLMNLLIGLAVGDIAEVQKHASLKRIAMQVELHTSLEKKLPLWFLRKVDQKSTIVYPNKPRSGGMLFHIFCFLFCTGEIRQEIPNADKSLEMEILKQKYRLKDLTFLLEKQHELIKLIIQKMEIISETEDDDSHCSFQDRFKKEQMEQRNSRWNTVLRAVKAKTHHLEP
Experiment description: Inhibition of human TRPA1 in whole cell patch configuration (10 μM AITC activation)
Run conditions: current activation 10 μM AITC, tested concentrations 320 pM to 3.2 μM, read-out: hTRPA1 IC50
In textbook form, pIC50 equals minus log to base ten of the concentration in mol/L.

C[C@@H](C(=O)Nc1cncc(-c2cnc(C(F)(F)F)nc2)n1)n1cnc2c1c(=O)n(CC(N)=O)c(=O)n2C [Compound 104] : 5.15

Challenge: Please report pIC50 for the following molecule: CC(=O)NC(=O)Cn1c(=O)c2c(ncn2[C@@H](C)C(=O)Nc2cccc(-c3cnc(C(F)(F)F)nc3)n2)n(C)c1=O [Compound 103]
Response given: 7.32

----------
Target or system: UniProt O75762
Experiment description: Inhibition of human TRPA1 in whole cell patch configuration (10 μM AITC activation)
Run conditions: current activation 10 μM AITC, tested concentrations 320 pM to 3.2 μM, read-out: hTRPA1 IC50
Reported property: pIC50
In textbook form, pIC50 equals minus log to base ten of the concentration in mol/L.

Cc1noc(Cn2c(=O)[nH]c3ncn(C(C)C(=O)Nc4cccc(-c5cnc(C(F)(F)F)nc5)n4)c3c2=O)n1 (stereo not drawn) : 6.25
CC(=O)NC(=O)Cn1c(=O)c2c(ncn2[C@@H](C)C(=O)Nc2cncc(-c3cnc(C(F)(F)F)nc3)n2)n(C)c1=O : 6.76

Now look at this one.
Challenge: Please indicate recorded pIC50 of C[C@@H](C(=O)Nc1cccc(-c2cnc(C(F)(F)F)nc2)n1)n1cnc2c1c(=O)n(CC(N)=O)c(=O)n2C measured with UniProt O75762.
Response given: 6.25
